- Subject of test: recombinant form of Glutaminase 1 (GAC) (Homo sapiens, UniProt O94925)
- Sequence (O94925 137-598 isoform O94925-3 limits assumed): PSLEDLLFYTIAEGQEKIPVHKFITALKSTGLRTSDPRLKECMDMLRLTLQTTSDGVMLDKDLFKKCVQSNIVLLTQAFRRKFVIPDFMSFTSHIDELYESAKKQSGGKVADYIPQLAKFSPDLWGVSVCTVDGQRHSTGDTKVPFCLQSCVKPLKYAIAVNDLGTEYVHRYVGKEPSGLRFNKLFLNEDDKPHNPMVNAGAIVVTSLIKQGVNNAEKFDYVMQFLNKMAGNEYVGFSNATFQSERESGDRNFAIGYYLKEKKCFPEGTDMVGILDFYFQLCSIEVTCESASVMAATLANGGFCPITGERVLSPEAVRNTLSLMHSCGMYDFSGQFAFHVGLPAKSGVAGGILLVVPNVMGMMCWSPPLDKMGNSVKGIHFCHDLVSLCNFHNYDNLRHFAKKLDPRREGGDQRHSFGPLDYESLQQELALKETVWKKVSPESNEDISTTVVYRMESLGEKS
- Method: Recombinant Enzyme Assay - Time Dependence (60 min preincubation)
- Assay type: biochemical
- Cond: read-out: GAC Delta N2 IC50 60 min preinc
Below, each of the molecules is paired with its reported IC50 value.
Metric: IC50 (nM)

NCc1cccc(CC(=O)Nc2ccc(CCCCc3nnc(NC(=O)Cc4ccccc4)s3)nn2)c1 ... 9
NCc1cccc(CC(=O)Nc2nnc(CCCCc3nnc(NC(=O)Cc4cccc(CN)c4)s3)s2)c1 ... 170
CCCNC(=O)Cc1cccc(CC(=O)Nc2nnc(CCCCc3ccc(NC(=O)Cc4ccccc4)nn3)s2)c1 ... 4
O=C(Cc1cccc(OC(F)(F)F)c1)Nc1ccc(CCCCc2nnc(NC(=O)Cc3cc(F)ccc3F)s2)nn1 ... 10
O=C(Cc1ccccc1)Nc1ccc(CCCCc2nnc(NC(=O)Cc3cccc(CCNC(=O)c4ccccc4)c3)s2)nn1 ... 3
CC(C)(C)OC(=O)NCc1cccc(CC(=O)Nc2nnc(CCCCc3ccc(NC(=O)C(C)(C)C)nn3)s2)c1 ... 22
O=C(Cc1cccc(OC(F)(F)F)c1)Nc1ccc(CCCCc2nnc(NC(=O)Cc3ccccc3F)s2)nn1 ... 6
CC(CO)(CO)C(=O)NCc1cccc(CC(=O)Nc2nnc(CCCCc3ccc(NC(=O)Cc4ccccc4)nn3)s2)c1 ... 11
CN1CCN(C(=O)c2cccc(CC(=O)Nc3nnc(CCCCc4ccc(NC(=O)Cc5ccccc5)nn4)s3)c2)CC1 ... 11
O=C(Cc1ccccc1)Nc1ccc(CCCCc2nnc(NC(=O)Nc3ccccc3)s2)nn1 ... 24
CC(C)(C)NC(=O)Cc1cccc(CC(=O)Nc2ccc(CCCCc3nnc(NC(=O)Cc4ccccc4)s3)nn2)c1 ... 4
O=C(Cc1ccccc1)Nc1ccc(CCCCc2nnc(NC(=O)Cc3cccc(Cn4cccn4)c3)s2)nn1 ... 4
CC(C)CC(=O)NCc1cccc(CC(=O)Nc2nnc(CCCCc3ccc(NC(=O)Cc4ccccc4)nn3)s2)c1 ... 2
CCCCS(=O)(=O)Cc1cccc(CC(=O)Nc2ccc(CCCCc3nnc(NC(=O)Cc4ccccc4)s3)nn2)c1 ... 2
O=C(Cc1cccc(Cl)c1)Nc1ccc(CCCCc2nnc(NC(=O)C(OC(=O)Cc3cccc(Cl)c3)c3cccc(Cl)c3)s2)nn1 (centres unmarked) ... 110
CC(C)(C)OC(=O)NCc1ccc(CC(=O)Nc2nnc(CCCCc3ccc(NC(=O)Cc4ccccc4)nn3)s2)cc1 ... 5
O=C(Cc1ccccc1)Nc1ccc(CCCCc2nnc(NC(=O)Cc3cccc(CNC(=O)c4ccc(Br)nn4)c3)s2)nn1 ... 2
CC(=O)NCc1cccc(CC(=O)Nc2nnc(CCCCc3ccc(NC(=O)Cc4ccccc4)nn3)s2)c1 ... 7
O=C(Nc1nnc(CCCCc2nnc(NC(=O)C(CO)c3ccccc3)s2)s1)C(CO)c1ccccc1 (centres unmarked) ... 40
CCOC(=O)Cc1cccc(CC(=O)Nc2ccc(CCCCc3nnc(NC(=O)Cc4ccccc4)s3)nn2)c1 ... 4
O=C(Cc1ccccc1)Nc1ccc(CCCCc2nnc(NC(=O)Cc3c(F)cccc3F)s2)nn1 ... 11
O=C(Cc1ccccc1)Nc1ccc(CCCCc2nnc(NC(=O)Cc3ccc(F)c(OCCO)c3)s2)nn1 ... 7
CCN(C)C(=O)Cc1cccc(CC(=O)Nc2nnc(CCCCc3ccc(NC(=O)Cc4ccccc4)nn3)s2)c1 ... 4
COC(=O)NC(C)c1cccc(CC(=O)Nc2nnc(CCCCc3ccc(NC(=O)Cc4ccccc4)nn3)s2)c1 (centres unmarked) ... 4
CC(O)(CC(=O)NCc1cccc(CC(=O)Nc2nnc(CCCCc3ccc(NC(=O)Cc4ccccc4)nn3)s2)c1)C(F)(F)F (centres unmarked) ... 4
CC1(C)OCC(C)(C(=O)NCc2cccc(CC(=O)Nc3nnc(CCCCc4ccc(NC(=O)Cc5ccccc5)nn4)s3)c2)CO1 ... 5
O=C(Cc1ccccc1)Nc1ccc(CCCCc2nnc(NC(=O)Cc3cccc(OCCCO)c3)s2)nn1 ... 9
CCCN(C)C(=O)Cc1cccc(CC(=O)Nc2nnc(CCCCc3ccc(NC(=O)Cc4ccccc4)nn3)s2)c1 ... 3
O=C(Cc1ccccc1)Nc1ccc(CCCCc2nnc(NC(=O)C(O)c3cccc(Cl)c3)s2)nn1 (centres unmarked) ... 6
